For each of the molecules below, state its pIC50.
- measured_on: human ACC2 (acetyl-coenzyme A carboxylase 2) (Homo sapiens, UniProt O00763)
- Sequence (O00763 27-2458 limits assumed): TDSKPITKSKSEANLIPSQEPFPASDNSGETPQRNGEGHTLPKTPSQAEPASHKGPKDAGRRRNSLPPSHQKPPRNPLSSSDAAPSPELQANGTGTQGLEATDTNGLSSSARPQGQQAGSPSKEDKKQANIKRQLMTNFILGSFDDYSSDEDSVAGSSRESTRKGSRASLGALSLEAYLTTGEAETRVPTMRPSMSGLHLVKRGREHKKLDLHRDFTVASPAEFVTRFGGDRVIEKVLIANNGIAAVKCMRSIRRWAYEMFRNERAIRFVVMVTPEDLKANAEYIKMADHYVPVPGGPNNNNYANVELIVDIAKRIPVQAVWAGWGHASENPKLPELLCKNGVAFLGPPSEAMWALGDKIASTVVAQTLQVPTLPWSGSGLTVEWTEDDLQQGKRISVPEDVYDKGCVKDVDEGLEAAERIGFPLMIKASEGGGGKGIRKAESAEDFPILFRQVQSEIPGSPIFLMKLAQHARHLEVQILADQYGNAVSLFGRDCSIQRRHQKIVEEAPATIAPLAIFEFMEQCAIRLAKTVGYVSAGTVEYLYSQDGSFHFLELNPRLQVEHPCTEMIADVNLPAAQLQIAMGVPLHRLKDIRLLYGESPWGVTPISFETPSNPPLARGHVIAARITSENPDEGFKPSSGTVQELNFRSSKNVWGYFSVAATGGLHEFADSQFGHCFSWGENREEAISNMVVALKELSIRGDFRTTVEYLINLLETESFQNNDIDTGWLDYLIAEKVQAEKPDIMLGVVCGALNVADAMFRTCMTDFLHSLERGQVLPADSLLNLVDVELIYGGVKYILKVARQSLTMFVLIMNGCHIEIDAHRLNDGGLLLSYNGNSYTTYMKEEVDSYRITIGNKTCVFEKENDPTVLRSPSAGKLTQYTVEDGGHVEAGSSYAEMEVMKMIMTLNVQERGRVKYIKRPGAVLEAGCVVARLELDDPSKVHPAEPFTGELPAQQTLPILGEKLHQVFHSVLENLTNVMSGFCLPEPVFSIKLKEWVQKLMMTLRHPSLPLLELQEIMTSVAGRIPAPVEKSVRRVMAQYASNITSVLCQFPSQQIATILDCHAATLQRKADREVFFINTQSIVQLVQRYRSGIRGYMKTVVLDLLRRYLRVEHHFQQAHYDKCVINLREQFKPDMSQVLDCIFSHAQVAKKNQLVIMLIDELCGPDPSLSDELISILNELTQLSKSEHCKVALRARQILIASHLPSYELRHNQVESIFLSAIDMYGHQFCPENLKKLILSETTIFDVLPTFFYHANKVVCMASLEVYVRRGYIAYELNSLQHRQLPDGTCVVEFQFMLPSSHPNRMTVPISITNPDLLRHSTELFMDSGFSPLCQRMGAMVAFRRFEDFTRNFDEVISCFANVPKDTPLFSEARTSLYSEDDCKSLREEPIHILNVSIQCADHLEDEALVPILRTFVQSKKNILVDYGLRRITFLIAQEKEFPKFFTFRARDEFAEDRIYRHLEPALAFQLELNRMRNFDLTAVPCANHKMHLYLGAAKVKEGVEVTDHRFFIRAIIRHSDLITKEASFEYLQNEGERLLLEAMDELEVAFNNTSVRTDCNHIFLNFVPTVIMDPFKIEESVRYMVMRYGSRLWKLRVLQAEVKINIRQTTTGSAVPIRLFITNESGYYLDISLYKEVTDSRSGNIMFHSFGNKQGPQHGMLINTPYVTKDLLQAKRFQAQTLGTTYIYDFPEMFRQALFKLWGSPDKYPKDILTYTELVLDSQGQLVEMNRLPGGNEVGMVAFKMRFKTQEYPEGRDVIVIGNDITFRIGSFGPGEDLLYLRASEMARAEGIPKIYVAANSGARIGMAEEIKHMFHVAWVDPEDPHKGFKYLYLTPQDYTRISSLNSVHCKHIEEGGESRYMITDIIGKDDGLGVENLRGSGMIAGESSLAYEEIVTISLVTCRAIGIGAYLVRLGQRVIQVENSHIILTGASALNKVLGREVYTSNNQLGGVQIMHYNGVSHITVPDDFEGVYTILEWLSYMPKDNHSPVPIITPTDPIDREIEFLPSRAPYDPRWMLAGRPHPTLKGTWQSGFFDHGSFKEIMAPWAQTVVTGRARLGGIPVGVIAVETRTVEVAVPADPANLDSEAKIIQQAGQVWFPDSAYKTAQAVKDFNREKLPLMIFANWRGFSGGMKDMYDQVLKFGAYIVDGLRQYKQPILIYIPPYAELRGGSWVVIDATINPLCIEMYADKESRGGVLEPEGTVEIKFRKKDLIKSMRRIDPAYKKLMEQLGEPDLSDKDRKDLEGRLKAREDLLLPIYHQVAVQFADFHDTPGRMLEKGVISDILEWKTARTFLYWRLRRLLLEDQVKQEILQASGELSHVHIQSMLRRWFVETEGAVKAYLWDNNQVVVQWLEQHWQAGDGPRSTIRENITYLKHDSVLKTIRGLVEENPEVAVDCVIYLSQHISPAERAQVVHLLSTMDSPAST
- procedure_summary: Human ACC2 enzyme assay, Assay B2 (ADP-Glo);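 also: human ACC2 activity read as ADP product, detected by luciferase glow luminescence after residual ATP removal, enzyme near 2 ng/µl in linear range, detection steps at 22 °C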
On this scale, pIC50 is minus log10 of a concentration expressed in M (mol/L).

Problem: Quickly give me recorded pIC50 for COC1CCCC2(C1)OC(=O)C(c1c(C)cc(C)c(-c3ccc(Cl)cc3)c1C)=C2O (stereo not drawn)
Solution: 5.47

Problem: Tell us which pIC50 value is on record for "O=c1[nH]c2cc(Cl)ccc2c(O)c1-c1cc(-c2ccc(Cl)cc2)ccc1Cl"
Solution: 5.40

Problem: Hello, please tell me recorded pIC50 for this one: Cc1ccc(-c2ccc(Cl)cc2)cc1C1=C(O)C2(CCC3(CC2)OCC(C)O3)NC1=O (stereo not drawn)
Solution: 5.14

Problem: Note pIC50 for the molecule shown: COC1CCCC2(C1)NC(=O)C(c1c(C)ccc(-c3ccc(Cl)cc3)c1C)=C2O (stereo not drawn)
Solution: 4.83

Problem: # return recorded pIC50 for input "Cc1ccc(-c2ccc(Cl)cc2)cc1C1=C(O)C2(CCC(C)(C)CC2)NC1=O"
Solution: 5.95

Problem: Determine its reported pIC50: CCOC1CCC2(CC1)NC(=O)C(c1c(C)cc(C)c(-c3ccc(Cl)cc3)c1C)=C2O (stereo not drawn)
Solution: 6.10

Problem: Write down pIC50 measured for item "CO[C@H]1CC[C@]2(CC1)NC(=O)C(c1cc(-c3ccc(Cl)c(F)c3)c(Cl)cc1C)=C2O"
Solution: 6.12

Problem: Return pIC50 (reported value) for this molecule: "COC[C@H]1CC[C@]2(CC1)NC(=O)C(c1cc(-c3ccc(Cl)cc3)ccc1C)=C2O"
Solution: 6.23

Problem: Look up and report measured pIC50 for this entry: "COC[C@H]1CC[C@]2(CC1)NC(=O)C(c1cc(-c3ccc(Cl)c(F)c3)ccc1C)=C2O"
Solution: 5.95

Problem: Annotate the molecule "Cc1ccc(-c2ccc(Cl)cc2)c(C)c1C1=C(O)C2(CCCCC2)OC1=O" with its measured pIC50.
Solution: 5.57

Problem: Give me measured pIC50, please, for this molecule: COCCC1CCCC2(C1)OC(=O)C(c1cc(-c3ccc(Cl)cc3)ccc1Cl)=C2O (stereo not drawn)
Solution: 4.87

Problem: Indicate its recorded pIC50; the molecule in question is Cc1ccc(-c2ccc(Cl)cc2)cc1C1=C(O)C(C)(C(C)C)NC1=O (stereo not drawn)
Solution: 5.09

Problem: Consider the molecule Cc1ccc(-c2ccc(Cl)cc2)cc1C1=C(O)C(C)(C2CC2)NC1=O (stereo not drawn) . State its measured pIC50.
Solution: 5.21

Problem: Determine from records and report pIC50 for Cc1ccc(-c2ccc(Cl)cc2)cc1C1=C(O)C2(CCCC(C)C2)NC1=O (stereo not drawn)
Solution: 5.88

Problem: For the molecule "CC1(C)CCC2(CC1)NC(=O)C(c1cc(-c3ccc(Cl)cc3)ccc1Cl)=C2O" , report pIC50.
Solution: 5.66
